Taken from ChEMBL document CHEMBL1154694.

Measured pIC50 (Histone-lysine N-methyltransferase EHMT2 (Homo sapiens, UniProt Q96KQ7))
pIC50: −log10 of the molar value.
property-label: pIC50

a = COc1cc2nc(N3CCCCC3)nc(NC3CCN(C)CC3)c2cc1OC
b = COc1cc2nc(N3CCOCC3)nc(NC3CCN(C)CC3)c2cc1OC
Prompt line: Record comparison, field pIC50: mark the lower of a and b . # respond with the chosen item's label
Response line: b
